Attribution: patent US6949669B2

System: Chenopodium
Assay: Pre-emergence herbicidal action (Example B1)
Format: in vivo
Settings: 1 kg/ha, evaluated 4 weeks later, rating scale 1-9 (1=total damage, 9=no action)
Could you please report measured Preemergence test rating, Chenopodium for the items listed next?
Output spec: single numeric token, no unit.

Task item: Return the recorded Preemergence test rating, Chenopodium value; entry: COc1cc(CC#N)ccc1OCC#Cc1cccc(CC#N)c1 [Compound 1.168]
Reply: 2

Task item: Tell me measured Preemergence test rating, Chenopodium for COc1cc(C#N)ccc1OCC#Cc1ccc(Cl)cc1 [Compound 1.098] please.
Reply: 1

Task item: Read the entry COc1cc(C#N)ccc1OCC#Cc1cccc(Br)c1 [Compound 1.104] and write its reported Preemergence test rating, Chenopodium.
Reply: 1

Task item: # return recorded Preemergence test rating, Chenopodium for input COc1cc(C#N)ccc1OCC#Cc1cccc(CC#N)c1 [Compound 1.109]
Reply: 1

Task item: Give Preemergence test rating, Chenopodium for the following compound: COc1ccccc1OCC#Cc1cccc(CC#N)c1 [Compound 1.033]
Reply: 1

Task item: Please report Preemergence test rating, Chenopodium for the following compound: COc1cc([N+](=O)[O-])ccc1OCC#Cc1cccc(CC#N)c1 [Compound 1.198]
Reply: 1

###

For each of the compounds below, state its Preemergence test rating, Panicum.
Test system: Panicum
Test: Pre-emergence herbicidal action (Example B1)
Format: in vivo
Details: 1 kg/ha, evaluated 4 weeks later, rating scale 1-9 (1=total damage, 9=no action)
Answer field: number only, no words.

Task item: Fill in reported Preemergence test rating, Panicum for this entry: COc1ccccc1OCC#Cc1cccc(CC#N)c1 [Compound 1.033]
Reply: 2

Task item: Given the compound COc1cc(C#N)ccc1OCC#Cc1cccc(Br)c1 [Compound 1.104] , write its reported Preemergence test rating, Panicum.
Reply: 7

Task item: Recall and state the measured Preemergence test rating, Panicum for COc1cc([N+](=O)[O-])ccc1OCC#Cc1cccc(CC#N)c1 [Compound 1.198] .
Reply: 1

Task item: Provide one value: measured Preemergence test rating, Panicum of COc1cc(C#N)ccc1OCC#Cc1cccc(CC#N)c1 [Compound 1.109]
Reply: 1

Task item: State, in one line, measured Preemergence test rating, Panicum of COc1cc(CC#N)ccc1OCC#Cc1cccc(CC#N)c1 [Compound 1.168]
Reply: 1

Task item: Read the entry COc1cc(C#N)ccc1OCC#Cc1ccc(Cl)cc1 [Compound 1.098] and write its reported Preemergence test rating, Panicum.
Reply: 1

###

System: Stellaria
Experiment: Pre-emergence herbicidal action (Example B1)
Assay type: in vivo
Design: key: 1=total damage; 9=no action
Details: 1 kg/ha, evaluated 4 weeks later, rating scale 1-9 (1=total damage, 9=no action)
Observed property: Preemergence test rating, Stellaria
API doc: respond with a numeric literal and nothing else, no unit.

Task item: Kindly indicate its recorded Preemergence test rating, Stellaria. Item: `COc1cc(C#N)ccc1OCC#Cc1cccc(CC#N)c1`
Reply: 1

Task item: Consider the molecule `COc1cc([N+](=O)[O-])ccc1OCC#Cc1cccc(CC#N)c1` and give its recorded Preemergence test rating, Stellaria.
Reply: 1

Task item: Fill in Preemergence test rating, Stellaria for record `COc1cc(CC#N)ccc1OCC#Cc1cccc(CC#N)c1`
Reply: 1

Task item: Entry `COc1cc(C#N)ccc1OCC#Cc1ccc(Cl)cc1` needs its Preemergence test rating, Stellaria filled in; supply it.
Reply: 1

Task item: Note down Preemergence test rating, Stellaria recorded for `COc1cc(C#N)ccc1OCC#Cc1cccc(Br)c1`
Reply: 1

Task item: Find the measured Preemergence test rating, Stellaria of `COc1ccccc1OCC#Cc1cccc(CC#N)c1` and report it.
Reply: 1
